Hello, the source for this data is PubChem BioAssay (NCI), in case you need it.

System: OVCAR-3 ovarian
Assay: NCI tumour cell line growth inhibition, 48 h
Each record here notes measured TGI.
readout_name: TGI (µM)

compound	readout_name	qualifier	quantitative_readout
Cc1ccc(S(=O)(=O)N/N=C2\CC3CC4CCC2C4C3)cc1 (centres undefined)	TGI	>	100
COc1ccc(NC(C(N)=O)c2cc3cc(Br)ccc3nc2Cl)cc1 (centres undefined)	TGI	>	100
Cc1nc2ccccn2c1NC(=O)NNC(=S)Nc1ccc(F)cc1	TGI	>	100
CCCCCC[C@@H](C)NC(=O)c1ccc(Nc2nc3ccccc3c3occc23)cc1	TGI	>	100
C[C@]12CC[C@H]3[C@@H](CC4SC(N)=NC45C/C(=N/NC(N)=O)CC[C@]35C)[C@@H]1CCC2=O (some centres undefined)	TGI	=	3.44
Cc1ccc(N=Nc2c(O)ccc3cc(S(=O)(=O)O)ccc23)cc1	TGI	>	100
COC1=CC(c2ccc[nH]2)=N/C1=C\c1[nH]c(C)c(CC(=O)OCc2ccccc2)c1C	TGI	=	1.41
COc1ccc2c(c1)NC1(CCN(CCCC(=O)c3ccc(F)cc3)CC1)N=N2	TGI	=	53.5
C=C1C(=O)O[C@H]2[C@H]1CC/C(COC(=O)OC/C1=C/CC[C@@]3(C)O[C@H]3[C@H]3OC(=O)[C@@H](CN(C)C)[C@@H]3CC1)=C\CC[C@@]1(C)O[C@@H]21	TGI	=	1.7
O=[N+]([O-])c1cc2ccc(N(CCO)CCO)nc2nc1N(CCO)CCO	TGI	>	100
COC(=O)/C(C#N)=C(\N)C(Cl)(Cl)Cl	TGI	=	12.9
ClCc1ccccc1Cn1cnc2c(Cl)ncnc21	TGI	=	3.53
Cc1ccc(-c2cc[n+]3c(n2)oc2ccccc23)cc1	TGI	=	40.9
COc1cc2c(cc1Oc1c(Oc3c(O)c(OC)cc4c3C(CC(C)C)N(C)CC4)c(OC)cc3c1C(CC(C)C)N(C)CC3)C(CC(C)C)N(C)CC2 (centres undefined)	TGI	=	11.4
CCOc1ccc(NCC2CC/C(=C\c3ccccc3OC)C2=O)cc1 (centres undefined)	TGI	=	17.1
Nc1nc2cc(CC[C@H]3C[C@@H](n4ccc5c(N)ncnc54)[C@H](O)[C@@H]3O)ccc2cc1Br	TGI	=	26.1
CCC(CC)(CO)CNc1cc(Cl)nc(N)n1	TGI	>	100
CN(CCCNC(=O)c1nn(C)c2c1Cc1ccccc1-2)CCCNC(=O)c1nn(C)c2c1Cc1ccccc1-2	TGI	=	38
O=C(OC1CN2CCC1CC2)N(c1ccccc1)c1ccccc1 (centres undefined)	TGI	>	100
O=C1C(=O)c2ccccc2C(O)=C1CCCc1ccc(C2CCCCC2)cc1	TGI	=	15.2
C=C1C(=O)O[C@H]2[C@H]1CC/C(Cn1cc(-c3ccc(F)cc3)nn1)=C\CC[C@@]1(C)O[C@@H]21	TGI	=	1.69
COc1cc(C(C)c2cc3c(cc2OCCNC(=O)COc2cc4c(cc2C(C)c2cc(OC)c(OC)c(OC)c2)OCO4)OCO3)cc(OC)c1OC (centres undefined)	TGI	>	100
N#CC(C#N)=Cc1ccc(CP(=O)(O)O)cc1	TGI	>	100
CNC(=O)SCC(NC(=O)CCC(N)C(=O)O)C(=O)NCC(=O)O (centres undefined)	TGI	>	100
CN(C)CCNC(=O)c1cccc2nc3c(C(=O)NCCN(C)C)cccc3nc12	TGI	=	8.67
CCOc1ccc(C(C)c2cc3c(cc2OC)OCO3)cc1 (centres undefined)	TGI	=	27.7
CC1CC(C)C2OC2(C)C[C@H](C)C(=O)NC(C)C(=O)N(C)[C@H](Cc2c(Br)[nH]c3ccccc23)C(=O)N[C@@H](c2ccc(O)cc2)CC(=O)O1 (some centres undefined)	TGI	=	9.61
O=C(O)/C(=C\c1ccc(O)cc1)c1cccc2ccccc12	TGI	>	100
Nn1c(=O)[nH]c2ncn(Cc3ccccc3)c2c1=O	TGI	>	100
COc1cc2cc(C(=O)N3CC(CCl)c4ccc(N(C)C)cc43)[nH]c2c(OC)c1OC (centres undefined)	TGI	=	0.363
COc1cc(Cc2cnc(N)nc2N)cc(OC)c1OCCCNc1ccc([N+](=O)[O-])cc1	TGI	=	28.1
COC(=O)C1CC(OC(C)=O)C=C2C(=O)CCC21 (centres undefined)	TGI	=	31.2
O=C(Nc1ccc(F)cc1)Nc1ccc(Br)c(C(F)(F)F)c1	TGI	=	11.6
O=C1CSC(c2ccc([N+](=O)[O-])cc2)N1c1ccc(-c2ccc(-n3c(-c4ccccc4)nc4ccccc4c3=O)cc2)cc1 (centres undefined)	TGI	>	100
NC(=O)c1cccc(OCC(O)CO)c1 (centres undefined)	TGI	>	100
O=C(CN1CCCCC1)Nc1ccc2c(c1)C1Oc3ccccc3CC1CO2 (centres undefined)	TGI	=	64.9
O=CN1N=C(c2cccc(Nc3ccnc4cc(Cl)ccc34)c2)CC1c1ccccc1 (centres undefined)	TGI	=	0.774
C=C1C(=O)O[C@H]2[C@H]1CC/C(COC(=O)CCCc1c[nH]c3ccccc13)=C\CC[C@@]1(C)O[C@@H]21	TGI	=	3.02
Cc1ccc(NC(=O)/C(Cc2cc(=O)oc3cc(O)ccc23)=N\NC(C)(C)C)cc1C	TGI	>	100
